Target: Leukotriene B4 receptor 1 (Homo sapiens)
Sequence (Q15722 whole entry): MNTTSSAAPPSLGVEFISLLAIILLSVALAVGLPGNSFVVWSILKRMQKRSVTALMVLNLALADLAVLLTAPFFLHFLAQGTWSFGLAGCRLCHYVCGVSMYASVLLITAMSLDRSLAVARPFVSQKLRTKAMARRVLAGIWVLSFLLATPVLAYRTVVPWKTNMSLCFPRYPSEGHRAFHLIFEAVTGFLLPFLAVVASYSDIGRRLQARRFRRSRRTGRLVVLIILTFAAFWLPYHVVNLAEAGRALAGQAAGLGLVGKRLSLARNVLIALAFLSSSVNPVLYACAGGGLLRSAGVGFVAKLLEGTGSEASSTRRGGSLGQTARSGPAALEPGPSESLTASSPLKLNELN
Assay: Compound was tested for its antagonist activity in a LTB4 human neutrophil receptor binding assay using the natural ligand itself
EXPERIMENTAL_ENDPOINT: pIC50
Numbers only, as −log10 of the molar value.

## Input Hello, I am looking for reported pIC50 with Leukotriene B4 receptor 1 (Homo sapiens) for CCCCC/C=C\C[C@@H](C)/C=C/C=C/C=C/[C@@H](O)CCCC(=O)O . Could you help?
## Output 5.42
